Ref: the kinase profiling compilation of Christmann-Franck et al. (2016)

Target: ALK (human) (UniProt Q9UM73)
Sequence (Q9UM73 whole entry, looked up): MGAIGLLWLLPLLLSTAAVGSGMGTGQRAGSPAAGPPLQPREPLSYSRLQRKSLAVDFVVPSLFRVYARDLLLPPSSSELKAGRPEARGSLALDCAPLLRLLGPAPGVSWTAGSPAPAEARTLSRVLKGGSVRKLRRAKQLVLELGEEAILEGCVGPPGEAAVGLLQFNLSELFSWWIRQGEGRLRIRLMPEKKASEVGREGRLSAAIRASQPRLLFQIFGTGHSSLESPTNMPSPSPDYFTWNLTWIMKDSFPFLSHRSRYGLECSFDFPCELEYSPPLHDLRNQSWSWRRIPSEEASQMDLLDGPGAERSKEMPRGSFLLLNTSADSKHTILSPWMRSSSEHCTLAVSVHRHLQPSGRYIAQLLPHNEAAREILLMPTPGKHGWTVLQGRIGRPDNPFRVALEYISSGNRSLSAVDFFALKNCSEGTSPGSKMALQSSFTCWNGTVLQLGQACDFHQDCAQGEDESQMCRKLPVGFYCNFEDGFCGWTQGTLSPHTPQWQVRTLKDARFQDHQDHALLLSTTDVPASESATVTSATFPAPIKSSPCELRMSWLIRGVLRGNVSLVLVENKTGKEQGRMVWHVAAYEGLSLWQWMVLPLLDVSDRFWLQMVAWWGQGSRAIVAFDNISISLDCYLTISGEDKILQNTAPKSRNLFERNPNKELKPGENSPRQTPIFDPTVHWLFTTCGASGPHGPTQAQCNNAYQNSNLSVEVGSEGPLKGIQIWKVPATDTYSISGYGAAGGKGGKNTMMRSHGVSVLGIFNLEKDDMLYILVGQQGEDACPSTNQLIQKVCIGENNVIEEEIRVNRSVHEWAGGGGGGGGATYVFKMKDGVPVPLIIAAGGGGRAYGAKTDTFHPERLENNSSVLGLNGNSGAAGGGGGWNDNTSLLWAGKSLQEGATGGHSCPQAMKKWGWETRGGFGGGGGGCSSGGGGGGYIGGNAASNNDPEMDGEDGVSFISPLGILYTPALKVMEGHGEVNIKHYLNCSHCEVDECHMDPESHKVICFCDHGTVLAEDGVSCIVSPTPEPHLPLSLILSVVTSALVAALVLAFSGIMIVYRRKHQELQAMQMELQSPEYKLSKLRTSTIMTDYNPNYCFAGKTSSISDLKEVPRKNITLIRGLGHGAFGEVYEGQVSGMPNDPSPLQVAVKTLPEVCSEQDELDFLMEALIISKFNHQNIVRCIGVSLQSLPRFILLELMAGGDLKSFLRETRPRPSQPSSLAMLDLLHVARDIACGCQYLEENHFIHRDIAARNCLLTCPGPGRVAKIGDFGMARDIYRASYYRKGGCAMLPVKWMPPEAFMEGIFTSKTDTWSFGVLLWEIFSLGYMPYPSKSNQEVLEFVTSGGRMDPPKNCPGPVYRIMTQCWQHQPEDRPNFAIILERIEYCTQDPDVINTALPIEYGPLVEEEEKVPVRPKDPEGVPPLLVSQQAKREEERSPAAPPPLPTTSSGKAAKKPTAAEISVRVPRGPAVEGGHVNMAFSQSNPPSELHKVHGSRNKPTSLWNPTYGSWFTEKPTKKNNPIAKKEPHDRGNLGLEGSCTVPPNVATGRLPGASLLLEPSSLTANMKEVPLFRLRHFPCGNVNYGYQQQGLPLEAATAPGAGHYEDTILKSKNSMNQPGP
Test: radiometric filter-binding kinase assay, Kinase HotSpot
Settings: compound 0.5 µM; ATP 10 µM
Returns: string. Value is 1.0 if measured residual activity is below 90%, and 0.0 if it is greater than or equal to it.

Data request: I'd appreciate it if you could check whether c1ccc(-c2cnc(Nc3ccc(OCCN4CCCC4)cc3)s2)cc1 has residual activity smaller than 90%.
Data returned: 0.0

Data request: What about this compound? O=C1NC(=O)c2c1c1c3ccccc3[nH]c1c1[nH]c3cc(Br)ccc3c21
Data returned: 0.0

Data request: What about this compound? O=C(c1ccccc1)c1ccc(N2CCOCC2)cc1O
Data returned: 0.0

Data request: What about this compound? O=C(O)c1ccc2c3c1cccc3c(=O)n1c3ccccc3nc21
Data returned: 0.0

Data request: What about this compound? O=S(=O)(NCCNC/C=C/c1ccc(Br)cc1)c1cccc2cnccc12
Data returned: 0.0

Data request: What about this compound? CCCCc1c(-c2ccc(O)cc2)[nH]c2nccnc12
Data returned: 1.0

Data request: What about this compound? O=c1c2ccccc2[nH]c(=S)n1CCN1CCC(=C(c2ccc(F)cc2)c2ccc(F)cc2)CC1
Data returned: 0.0

Data request: What about this compound? Cn1cc(/C=C2\C(=O)Nc3ccc(S(N)(=O)=O)cc32)c2ccccc21
Data returned: 1.0

Data request: What about this compound? FC(F)(F)c1ccc(/C=C/c2nc(COc3ccc(CCCCn4ccnn4)cc3)co2)cc1
Data returned: 0.0

Data request: What about this compound? N#Cc1c(NC(=O)c2cccc3ccccc23)sc2c1CCCC2
Data returned: 0.0

Data request: What about this compound? COc1cc2c(N3CCN(C(=O)Nc4ccc(OC(C)C)cc4)CC3)ncnc2cc1OCCCN1CCCCC1
Data returned: 0.0

Data request: What about this compound? CN[C@@H]1C[C@H]2O[C@@](C)([C@@H]1OC)n1c3ccccc3c3c4c(c5c6ccccc6n2c5c31)C(=O)NC4
Data returned: 1.0

Data request: What about this compound? COc1cc2ncnc(Nc3ccc(O)c(Br)c3)c2cc1OC
Data returned: 1.0

Data request: What about this compound? O=c1c(-c2ccc(F)cc2)c(-c2ccncc2)[nH]n1-c1ccc(Cl)cc1
Data returned: 1.0

* * *

Molecular target: UniProt Q04771
Sequence (Q04771 whole entry, looked up): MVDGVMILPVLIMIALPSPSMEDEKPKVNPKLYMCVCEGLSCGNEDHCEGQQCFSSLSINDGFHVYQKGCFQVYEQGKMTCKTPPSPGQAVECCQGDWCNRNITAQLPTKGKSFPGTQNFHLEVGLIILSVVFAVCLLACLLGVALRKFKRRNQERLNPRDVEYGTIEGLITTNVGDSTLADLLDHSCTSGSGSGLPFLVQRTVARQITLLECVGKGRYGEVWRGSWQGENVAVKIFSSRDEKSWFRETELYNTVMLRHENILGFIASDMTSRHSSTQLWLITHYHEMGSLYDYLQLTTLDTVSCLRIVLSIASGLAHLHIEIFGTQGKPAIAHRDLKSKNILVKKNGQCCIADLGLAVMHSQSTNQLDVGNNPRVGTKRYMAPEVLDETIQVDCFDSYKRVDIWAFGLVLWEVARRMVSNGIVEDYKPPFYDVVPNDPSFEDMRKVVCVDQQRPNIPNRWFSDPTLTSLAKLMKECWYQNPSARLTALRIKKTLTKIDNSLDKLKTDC
Experiment: radiometric filter-binding kinase assay, Kinase HotSpot
Details: compound 0.5 µM; ATP 10 µM
Provide the recorded residual activity for the entries that follow.
Numbers only here, please. The scale is %.

Data request: Value lookup for residual activity; key = COc1cc2c(N3CCN(C(=O)Nc4ccc(OC(C)C)cc4)CC3)ncnc2cc1OCCCN1CCCCC1
Data returned: 145

Data request: What about this molecule? COc1cc2c(cc1OC)-c1[nH]nc(Nc3cccc(F)c3)c1C2
Data returned: 107

Data request: What about this molecule? N#CCCc1ccc2c(c1)-c1[nH]c3ccc([N+](=O)[O-])cc3c1CC(=O)N2
Data returned: 58.8

Data request: What about this molecule? O=c1cc(N2CCOCC2)oc2c(-c3ccccc3)cccc12
Data returned: 91.2

Data request: What about this molecule? O=C(O)c1ccc2c3c1cccc3c(=O)n1c3ccccc3nc21
Data returned: 91.1

Data request: What about this molecule? COc1cc2ncnc(Nc3ccc(O)c(Br)c3)c2cc1OC
Data returned: 128

Data request: What about this molecule? O=S(=O)(NCCNC/C=C/c1ccc(Br)cc1)c1cccc2cnccc12
Data returned: 96.4

Data request: What about this molecule? CCCCc1c(-c2ccc(O)cc2)[nH]c2nccnc12
Data returned: 83.8

Data request: What about this molecule? O=C(c1ccccc1)c1ccc(N2CCOCC2)cc1O
Data returned: 107

Data request: What about this molecule? O=c1c(-c2ccc(F)cc2)c(-c2ccncc2)[nH]n1-c1ccc(Cl)cc1
Data returned: 91.7

Data request: What about this molecule? CCOc1cc2ncnc(Nc3cccc(Br)c3)c2cc1OCC
Data returned: 97.1

* * *

Target: MAP4K2 (human)
Test: radiometric filter-binding kinase assay, Kinase HotSpot
Conditions: compound 0.5 µM; ATP 10 µM
Reported endpoint: residual activity (%)
Numbers only here, please. The scale is %.

Data request: Please provide the recorded residual activity for FC(F)(F)c1ccc(/C=C/c2nc(COc3ccc(CCCCn4ccnn4)cc3)co2)cc1 , tested on MAP4K2 (human).
Data returned: 105

Data request: What about this compound? Cn1cc(/C=C2\C(=O)Nc3ccc(S(N)(=O)=O)cc32)c2ccccc21
Data returned: 17.4

Data request: What about this compound? COc1cc2c(N3CCN(C(=O)Nc4ccc(OC(C)C)cc4)CC3)ncnc2cc1OCCCN1CCCCC1
Data returned: 104

Data request: What about this compound? N#Cc1c(NC(=O)c2cccc3ccccc23)sc2c1CCCC2
Data returned: 86.1

Data request: What about this compound? CCCCc1c(-c2ccc(O)cc2)[nH]c2nccnc12
Data returned: 28.2

Data request: What about this compound? O=c1[nH]c2ccccc2n1C1CCN(Cc2ccc(-c3nc4cc5[nH]cnc5cc4nc3-c3ccccc3)cc2)CC1
Data returned: 105

Data request: What about this compound? COc1cccc(-c2cc(=O)c3ccccc3o2)c1N
Data returned: 81.7

Data request: What about this compound? CCc1nc(-c2ccc(OC)cc2)[nH]c1-c1ccncc1
Data returned: 106

Data request: What about this compound? O=S(=O)(NCCNC/C=C/c1ccc(Br)cc1)c1cccc2cnccc12
Data returned: 51.1

Data request: What about this compound? N#CCCc1ccc2c(c1)-c1[nH]c3ccc([N+](=O)[O-])cc3c1CC(=O)N2
Data returned: 14

* * *

Target: IKBKB (human)
Test: radiometric filter-binding kinase assay, Kinase HotSpot
Conditions: compound 0.5 µM; ATP 10 µM
Reported endpoint: residual activity (%)
Numbers only here, please. The scale is %.

Data request: Value lookup for residual activity; key = N#Cc1c(NC(=O)c2cccc3ccccc23)sc2c1CCCC2
Data returned: 97

Data request: What about this molecule? COc1cccc(-c2cc(=O)c3ccccc3o2)c1N
Data returned: 92.5

Data request: What about this molecule? O=c1c(-c2ccc(F)cc2)c(-c2ccncc2)[nH]n1-c1ccc(Cl)cc1
Data returned: 102

Data request: What about this molecule? COc1cc2c(Nc3ccc(Br)cc3F)ncnc2cc1OCC1CCN(C)CC1
Data returned: 87.7

Data request: What about this molecule? O=C1NC(=O)c2c1c1c3ccccc3[nH]c1c1[nH]c3cc(Br)ccc3c21
Data returned: 92.2

Data request: What about this molecule? CCCCc1c(-c2ccc(O)cc2)[nH]c2nccnc12
Data returned: 103

Data request: What about this molecule? c1ccc(-c2cnc(Nc3ccc(OCCN4CCCC4)cc3)s2)cc1
Data returned: 98.1

Data request: What about this molecule? O=C1NC(=O)c2cc(Nc3ccc(F)cc3)c(Nc3ccc(F)cc3)cc21
Data returned: 95.6

Data request: What about this molecule? Cn1cc(/C=C2\C(=O)Nc3ccc(S(N)(=O)=O)cc32)c2ccccc21
Data returned: 101

Data request: What about this molecule? CCOc1cc2ncnc(Nc3cccc(Br)c3)c2cc1OCC
Data returned: 102

Data request: What about this molecule? Nc1ncnc2c1cnn2-c1ccccc1
Data returned: 97.3

* * *

Molecular target: HIPK2 (human)
Experiment: radiometric filter-binding kinase assay, Kinase HotSpot
Settings: compound 0.5 µM; ATP 10 µM
Provide the recorded residual activity for the entries that follow.
Numbers only here, please. The scale is %.

Data request: Value lookup for residual activity; key = O=c1c2ccccc2[nH]c(=S)n1CCN1CCC(=C(c2ccc(F)cc2)c2ccc(F)cc2)CC1
Data returned: 105

Data request: What about this molecule? COc1cc2c(Nc3ccc(Br)cc3F)ncnc2cc1OCC1CCN(C)CC1
Data returned: 99.4

Data request: What about this molecule? O=c1cc(N2CCOCC2)oc2c(-c3ccccc3)cccc12
Data returned: 122

Data request: What about this molecule? COc1cc2c(cc1OC)-c1[nH]nc(Nc3cccc(F)c3)c1C2
Data returned: 103

Data request: What about this molecule? Cn1cc(/C=C2\C(=O)Nc3ccc(S(N)(=O)=O)cc32)c2ccccc21
Data returned: 82.6

Data request: What about this molecule? COc1cc2ncnc(Nc3ccc(O)c(Br)c3)c2cc1OC
Data returned: 102

Data request: What about this molecule? COc1cc2c(N3CCN(C(=O)Nc4ccc(OC(C)C)cc4)CC3)ncnc2cc1OCCCN1CCCCC1
Data returned: 91.8

Data request: What about this molecule? O=c1[nH]c2ccccc2n1C1CCN(Cc2ccc(-c3nc4cc5[nH]cnc5cc4nc3-c3ccccc3)cc2)CC1
Data returned: 110

Data request: What about this molecule? O=C1NC(=O)c2cc(Nc3ccc(F)cc3)c(Nc3ccc(F)cc3)cc21
Data returned: 96.6

Data request: What about this molecule? N/C(=N\N=C/c1ccc(-c2cccc([N+](=O)[O-])c2)o1)N[N+](=O)[O-]
Data returned: 103
